The reported numbers originate from patent US6509033.

Parameter: pKi. Scope: all listed entries.
target: 'Empty' HLA-DR1 purified from insect cells expressing recombinant DR1 cDNA (human)
pKi: −log10 of the molar value.
Metric: pKi

{"Binder": "LPKPPKPVSKMRMAT [Ii 97-111]", "Relation Qualifier": "<", "Value Observed": 5.00}
{"Binder": "YKHTLNQIDSVKVWPRR [Bovine Fetuin 56-72]", "Relation Qualifier": "=", "Value Observed": 7.18}
{"Binder": "VGSDWRFLRGYHQYA [Pseudo HLA-A2 103-117]", "Relation Qualifier": "=", "Value Observed": 7.31}
{"Binder": "IPADLRIISANGCKVDNS [Na+/K+ ATPase 199-216]", "Relation Qualifier": "=", "Value Observed": 7.17}
{"Binder": "KMRMATPLLMQALPM [Invariant Chain (Ii) 107-121]", "Relation Qualifier": ">", "Value Observed": 8.00}
{"Binder": "SDLSFSKDWSFYL [β2m 52-64]", "Relation Qualifier": "<", "Value Observed": 5.00}
{"Binder": "RVEYHFLSPYVSPKESP [Transferrin Recpt. 680-696]", "Relation Qualifier": ">", "Value Observed": 8.00}
